# System: redroot pigweed (Amaranthus retroflexus L.)
# TEST DESCRIPTION: Test Example 1: foliar treatment, growth inhibition rate, redroot pigweed
# Assay type: in vivo
# TEST SETTINGS: 63 g/ha active ingredient, visually observed 17th to 23rd day after application
PROPERTY: Growth inhibition rate (%) redroot pigweed

# MOLECULE, RESULT
measured = [
    ("CCSC(=O)Oc1c(C(=O)c2ccc(S(C)(=O)=O)c(C=CC#N)c2C)cnn1C", "100%"),
    ("CCSC(=O)Oc1c(C(=O)c2ccc(S(C)(=O)=O)c(CCC#N)c2C)cnn1C", "100%"),
    ("CCSC(=O)Oc1c(C(=O)c2ccc(S(C)(=O)=O)c(CSC#N)c2C)cnn1C", "80%"),
    ("CCSC(=O)Oc1c(C(=O)c2ccc(S(C)(=O)=O)c(OCC3OCCO3)c2Cl)cnn1CC", "100%"),
    ("CCSC(=O)Oc1c(C(=O)c2ccc(S(C)(=O)=O)c(CC3OCCO3)c2C)cnn1C", "100%"),
    ("CCC(C)SC(=O)Oc1c(C(=O)c2ccc(S(C)(=O)=O)c(C(=O)OC)c2Cl)cnn1CC (centres unmarked)", "100%"),
    ("CCSC(=O)Oc1c(C(=O)c2ccc(S(C)(=O)=O)c(CN(CC#N)C(=O)SCC)c2C)cnn1C", "40%"),
]

From here, focus on the item given below.
Summary for this molecule, CCSC(=O)Oc1c(C(=O)c2ccc(S(C)(=O)=O)c(SC)c2Cl)cnn1C : Growth inhibition rate (%) redroot pigweed is 100%

====

Consider the following compounds; for each one, report its Growth inhibition rate (%) Rice.
# System: rice (Oryza sativa L.)
# TEST DESCRIPTION: Test Example 1: foliar treatment, growth inhibition rate, rice
# Format: in vivo
# TEST SETTINGS: 31 g/ha active ingredient, visually observed 17th to 23rd day after application
Answers are plain numbers, in %.

Provide the reported Growth inhibition rate (%) Rice of each entry below, same order.
1. CCC(C)SC(=O)Oc1c(C(=O)c2ccc(S(C)(=O)=O)c(C(=O)OC)c2C)cnn1C (stereo not drawn)
2. CCSC(=O)Oc1c(C(=O)c2ccc(S(C)(=O)=O)c(CN(C)CC#N)c2C)cnn1C
3. CCn1ncc(C(=O)c2ccc(S(C)(=O)=O)c(C(=O)OC)c2C)c1OC(=O)SC
4. CCSC(=O)Oc1c(C(=O)c2ccc(S(C)(=O)=O)c(OCC3CCCO3)c2C)cnn1C (stereo not drawn)
5. CCSC(=O)Oc1c(C(=O)c2ccc(S(C)(=O)=O)c(COCC(F)(F)F)c2C)cnn1C

Out:
1. 95
2. 50
3. 100
4. 50
5. 80

Provide the reported Growth inhibition rate (%) Rice of each entry below, same order.
1. CCSC(=O)Oc1c(C(=O)c2ccc(S(C)(=O)=O)c(OCC3CCCCO3)c2C)cnn1C (stereo not drawn)
2. C#CCOc1c(S(C)(=O)=O)ccc(C(=O)c2cnn(C)c2OC(=O)SCC)c1C
3. CCCOc1c(S(C)(=O)=O)ccc(C(=O)c2cnn(C)c2OC(=O)SCC)c1C
4. CCSC(=O)Oc1c(C(=O)c2ccc(S(C)(=O)=O)c(OCCSC)c2C)cnn1C
5. C=C(C)CSC(=O)Oc1c(C(=O)c2ccc(S(C)(=O)=O)c(C(=O)OC)c2C)cnn1CC
6. CCn1ncc(C(=O)c2ccc(S(C)(=O)=O)c(OCCOC)c2C)c1OC(=O)SC

Out:
1: 70; 2: 70; 3: 60; 4: 10; 5: 98; 6: 90

Provide the reported Growth inhibition rate (%) Rice of each entry below, same order.
1. CCCCCCCc1c(S(C)(=O)=O)ccc(C(=O)c2cnn(C)c2OC(=O)SCC)c1C
2. CCCOC(=O)c1c(S(C)(=O)=O)ccc(C(=O)c2cnn(CC)c2OC(=O)SCC)c1Cl
3. CCSC(=O)Oc1c(C(=O)c2ccc(S(C)(=O)=O)c(C#N)c2C)cnn1C
4. CCSC(=O)Oc1c(C(=O)c2ccc(S(C)(=O)=O)c(OCCCl)c2C)cnn1C

Out:
1. 0
2. 70
3. 40
4. 10

====

# System: redroot pigweed (Amaranthus retroflexus L.)
# TEST DESCRIPTION: Test Example 1: foliar treatment, growth inhibition rate, redroot pigweed
# Assay type: in vivo
# TEST SETTINGS: 31 g/ha active ingredient, visually observed 17th to 23rd day after application
Consider the following molecules; for each one, report its Growth inhibition rate (%) redroot pigweed.
One number for each entry, in %.

# MOLECULE, ASSAYED TARGET, UNITS TEXT, READOUT NUMBER
data = [
    ("CCSC(=O)Oc1c(C(=O)c2ccc(S(C)(=O)=O)c(Cl)c2C)cnn1CC [compound 71]", "redroot pigweed (Amaranthus retroflexus L.)", "%", 70),
    ("CCSC(=O)Oc1c(C(=O)c2ccc(S(C)(=O)=O)c(COCCOC)c2C)cnn1C [compound 76]", "redroot pigweed (Amaranthus retroflexus L.)", "%", 90),
    ("CCCOC(=O)c1c(S(C)(=O)=O)ccc(C(=O)c2cnn(CC)c2OC(=O)SCC)c1Cl [compound 60]", "redroot pigweed (Amaranthus retroflexus L.)", "%", 80),
    ("CCn1ncc(C(=O)c2ccc(S(C)(=O)=O)c(C(=O)OC)c2C)c1OC(=O)SC(C)(C)C [compound 91]", "redroot pigweed (Amaranthus retroflexus L.)", "%", 98),
    ("CSC(=O)Oc1c(C(=O)c2ccc(S(C)(=O)=O)c(C3=NOCC3)c2C)cnn1C [compound 40]", "redroot pigweed (Amaranthus retroflexus L.)", "%", 90),
]

Provide the reported Growth inhibition rate (%) redroot pigweed of each entry below, same order.
1. CCSC(=O)Oc1c(C(=O)c2ccc(S(C)(=O)=O)c(OCCOC)c2C)cnn1C [Compound No. 55]
2. C#CCOc1c(S(C)(=O)=O)ccc(C(=O)c2cnn(C)c2OC(=O)SCC)c1C [compound 222]

Out:
1. 95
2. 100

Provide the reported Growth inhibition rate (%) redroot pigweed of each entry below, same order.
1. CCn1ncc(C(=O)c2ccc(S(C)(=O)=O)c(C(=O)OC)c2Cl)c1OC(=O)SC [compound 97]
2. CCSC(=O)Oc1c(C(=O)c2ccc(S(C)(=O)=O)c(COCC(F)(F)F)c2C)cnn1C [compound 69]

Out:
1. 100
2. 85

Provide the reported Growth inhibition rate (%) redroot pigweed of each entry below, same order.
1. CCSC(=O)Oc1c(C(=O)c2ccc(S(C)(=O)=O)c(COCC(F)(F)F)c2Cl)cnn1C [compound 70]
2. CCSC(=O)Oc1c(C(=O)c2ccc(S(C)(=O)=O)c(C#N)c2C)cnn1C [compound 82]
3. CCSC(=O)Oc1c(C(=O)c2ccc(S(C)(=O)=O)c(C(=O)OC)c2C)cnn1C [Compound No. 1]
4. CCSC(=O)Oc1c(C(=O)c2ccc(S(C)(=O)=O)c(C(=O)SC)c2Cl)cnn1C [compound 31]
5. COC(=O)c1c(S(C)(=O)=O)ccc(C(=O)c2cnn(C)c2OC(=O)SC(C)(C)C)c1C [compound 90]

Out:
1. 100
2. 60
3. 100
4. 70
5. 80

====

# Test system: velvetleaf (Abutilon theophrasti MEDIC.)
# TEST DESCRIPTION: Test Example 1: foliar treatment, growth inhibition rate, velvetleaf
# Format: in vivo
# TEST SETTINGS: Abutilon theophrasti, 31 g/ha active ingredient, visually observed 17th to 23rd day after application
Consider the following compounds; for each one, report its pest or weed control at 31 g/ha.
Numbers only, in %.

Provide the reported pest or weed control at 31 g/ha of each entry below, same order.
1. CCSC(=O)Oc1c(C(=O)c2ccc(S(C)(=O)=O)c(OCC(OC)OC)c2C)cnn1C
2. CCSC(=O)Oc1c(C(=O)c2ccc(S(C)(=O)=O)c(C3=NOCC3)c2C)cnn1C
3. CCSC(=O)Oc1c(C(=O)c2ccc(S(C)(=O)=O)c(OC)c2C)cnn1C
4. CCSC(=O)Oc1c(C(=O)c2ccc(S(C)(=O)=O)c(OC(F)F)c2C)cnn1C

Out:
[100, 90, 80, 60]

====

# System: corn (Zea mays L.)
# TEST DESCRIPTION: Test Example 1: foliar treatment, growth inhibition rate, corn
# Type: in vivo
# TEST SETTINGS: Zea mays, 31 g/ha active ingredient, visually observed 17th to 23rd day after application
Consider the following compounds; for each one, report its pest or weed control at 31 g/ha.

Field: example entries. Status: answers known.
# SMI, pest or weed control at 31 g/ha
data = [
    ("CCSC(=O)Oc1c(C(=O)c2ccc(S(C)(=O)=O)c(OC)c2C)cnn1C", "0%"),
    ("CCSC(=O)Oc1c(C(=O)c2ccc(S(C)(=O)=O)c(OCCOC)c2C)cnn1C", "40%"),
    ("CCSC(=O)Oc1c(C(=O)c2ccc(S(C)(=O)=O)c(C(=O)OC)c2C)cnn1C", "10%"),
]

Summary for this compound, CCSC(=O)Oc1c(C(=O)c2ccc(S(C)(=O)=O)c(OC(F)F)c2C)cnn1C : pest or weed control at 31 g/ha is 0%
